What IC50 was measured for each of the following?
# TARGET OF ASSAY: Programmed cell death 1 ligand 1 (Homo sapiens, UniProt Q9NZQ7)
# Sequence (Q9NZQ7 whole entry): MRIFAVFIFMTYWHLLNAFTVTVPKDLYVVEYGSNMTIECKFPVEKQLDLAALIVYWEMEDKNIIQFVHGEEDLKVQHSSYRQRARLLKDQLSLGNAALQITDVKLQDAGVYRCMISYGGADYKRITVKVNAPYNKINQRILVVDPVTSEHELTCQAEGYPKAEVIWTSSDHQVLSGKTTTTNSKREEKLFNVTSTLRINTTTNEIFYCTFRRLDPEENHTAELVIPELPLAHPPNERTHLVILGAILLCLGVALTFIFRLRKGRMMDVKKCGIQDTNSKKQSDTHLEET
# PROTOCOL TEXT: Binding affinity to His-tagged PD-L1 (unknown origin) assessed as inhibition of interaction with PD1 preincubated for 15 mins followed by PD1 addition measured after 15 mins by HTRF assay

COc1cc(OCc2cccc(-c3ccccc3)c2C#N)cc(OC)c1CN1CCCC[C@H]1C(=O)O; 6 nM

Could you now look at the following compound, please?
Find the measured IC50: item `Cc1cc(CN2CCC(C(=O)NCCO)CC2)ccc1OCc1cccc(-c2ccccc2)c1C` , target or system Programmed cell death 1 ligand 1 (Homo sapiens, UniProt Q9NZQ7).
110 nM
